Origin of values: PubChem BioAssay AID624441

Assay: cellular ROS inducers, fluorescent dye readout – U2OS cells, fluorescence, dry powder, dose response (AID 624441)
Details: U2OS ROS induction, H2DCF-DA fluorescence, hits give high values; at 19.5 µM unless noted
The source made the active and inactive calls.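 The calls were made as follows: active = activation curve reaches 40% at a concentration no higher than the top valid dose tested; inactive = signal falling instead of rising, plus the rest.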
The compounds listed here are annotated with their max activation.

INPUT: Supply max activation value. Item: Nc1nc(SCc2ccccc2)ns1
OUTPUT: 18.5% [at 0.3 µM] (inactive)

INPUT: Supply max activation value. Item: Cc1ccccc1CSc1nnc(N)s1
OUTPUT: 9.38% (inactive)

INPUT: Supply max activation value. Item: Cc1ccccc1CSc1n[nH]c(N)n1
OUTPUT: 26% [at 0.0195 µM] (inactive)

INPUT: Supply max activation value. Item: O=C(Nc1nc(SCc2ccccc2)ns1)C1CCC1
OUTPUT: 11.4% (inactive)

INPUT: Supply max activation value. Item: Nc1nc(SCc2ccccc2Cl)ns1
OUTPUT: 15.6% [at 0.0001 µM] (inactive)
